Recorded values, source paper PMC6366617.

target: sushi 1 domain of GABABR1a (Fc-tag enzymatically removed) (UniProt Q9UBS5 26-98); assay: ITC
Sequence (Q9UBS5 26-98): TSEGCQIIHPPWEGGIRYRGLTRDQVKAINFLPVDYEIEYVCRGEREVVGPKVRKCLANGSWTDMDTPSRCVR
endpoint: pKd
Entry type: numeric. Quantity: pKd, the -log10 of concentration in molar units.

DDSDVWWGGADTDYADG (peptide, UniProt P05067-4 204-220, looked up) [APP 17mer peptide (APP695 204-220AA)]	6.09

Okay, next one:
Entry DDSDVWWGG (peptide, UniProt P05067-4 204-212, looked up) [APP 9mer peptide (APP695 residues 204-212)] needs its pKd filled in; supply it.
5.64
